TARGET_UNDER_TEST: T1, DRP1, endogenous (dynamin family GTPase) (human (endogenous in HCT116), UniProt O00429 1-736)
T1 construct: DRP1 endogenous in HCT116 cells; Immunoprecipitated with mouse monoclonal DRP1 antibody sc-271583; source: endogenous, HCT116 lysate (PFA cross-linked cells)
ASSAY: co-IP; endogenous DRP1 immunoprecipitated (mouse monoclonal sc-271583 on protein A/G beads) from lysates of HCT116 cells transfected with pcDNA or pcDNA-FIS1 variants and cross-linked with 0.25% PFA; FIS1 blotted; scored as ratio of immunoprecipitated to input FIS1; lysis buffer 10 mM Tris/Cl pH 7.5, 150 mM NaCl, 0.5 mM EDTA, 0.5% NP-40 substitute
TEST_SETTINGS: partners not purified
Measured ratio of immunoprecipitated to input FIS1, listed per entry.
Enter a number only.

Please review the entries below; each comes with its answer.
{"BINDER": "FIS1 D49G variant (natural protein, human, human FIS1 that keeps the SKY insert, with D49 replaced by Gly, expressed from pcDNA; source: HCT116, transfected, in lysate (PFA cross-linked cells)) MEAVLNELVSVEDLLKFEKKFQSEKAAGSVSKSTQFEYAWCLVRSKYNGDIRKGIVLLEELLPKGSKEEQRDYVFYLAVGNYRLKEYEKALKYVRGLLQTEPQNNQAKELERLIDKAMKKDGLVGMAIVGGMALGVAGLAGLIGL", "NUMERIC_VALUE": 0.7}
{"BINDER": "FIS1 AAA variant (SKY insert substituted with three alanines) (natural protein, human, human FIS1 with S45, K46, Y47 replaced by three Ala, expressed from pcDNA; also called AAA FIS1 variant; source: HCT116, transfected, in lysate (PFA cross-linked cells)) MEAVLNELVSVEDLLKFEKKFQSEKAAGSVSKSTQFEYAWCLVRAAANDDIRKGIVLLEELLPKGSKEEQRDYVFYLAVGNYRLKEYEKALKYVRGLLQTEPQNNQAKELERLIDKAMKKDGLVGMAIVGGMALGVAGLAGLIGL", "NUMERIC_VALUE": 0.9}

Next binder, please.
// ratio of immunoprecipitated to input FIS1 lookup, key: FIS1 ΔSKYD49G variant (SKY insert deleted, D49 replaced by Gly) (natural protein, human, human FIS1 with S45, K46, Y47 deleted and D49 replaced by Gly (wildtype numbering), expressed from pcDNA; source: HCT116, transfected, in lysate (PFA cross-linked cells)) MEAVLNELVSVEDLLKFEKKFQSEKAAGSVSKSTQFEYAWCLVRNGDIRKGIVLLEELLPKGSKEEQRDYVFYLAVGNYRLKEYEKALKYVRGLLQTEPQNNQAKELERLIDKAMKKDGLVGMAIVGGMALGVAGLAGLIGL
0.9

Where these numbers come from: paper PMC10641528
